Origin of values: ChEMBL document CHEMBL1133504

Measured Control, listed per entry.
Tested on: Aldehyde dehydrogenase, mitochondrial (Mesocricetus auratus)
Assay: Accumulation of 5 HIAL in isolated Hamster Liver Mitochondria at 3 uM.
Reply with just the number (in %).

Worked cases, Control given:
[[record]]
molecule = "O=c1c(-c2ccc(O)cc2)coc2cc(OCCCBr)ccc12"
measuredmetric = "Control"
value = 34.7

[[record]]
molecule = "O=c1c(-c2ccc(O)cc2)coc2cc(OCC(O)CO)ccc12 (stereo not drawn)"
measuredmetric = "Control"
value = 63


Item O=C(O)CCCCCCOc1ccc2c(=O)c(-c3ccc(O)cc3)coc2c1 with Aldehyde dehydrogenase, mitochondrial (Mesocricetus auratus) - Control? 228
